Kindly supply the reported kinase still bound, per cent of control values for the records listed here.
Target: NEK5 (human) (UniProt Q6P3R8)
Sequence (Q6P3R8 whole entry, looked up): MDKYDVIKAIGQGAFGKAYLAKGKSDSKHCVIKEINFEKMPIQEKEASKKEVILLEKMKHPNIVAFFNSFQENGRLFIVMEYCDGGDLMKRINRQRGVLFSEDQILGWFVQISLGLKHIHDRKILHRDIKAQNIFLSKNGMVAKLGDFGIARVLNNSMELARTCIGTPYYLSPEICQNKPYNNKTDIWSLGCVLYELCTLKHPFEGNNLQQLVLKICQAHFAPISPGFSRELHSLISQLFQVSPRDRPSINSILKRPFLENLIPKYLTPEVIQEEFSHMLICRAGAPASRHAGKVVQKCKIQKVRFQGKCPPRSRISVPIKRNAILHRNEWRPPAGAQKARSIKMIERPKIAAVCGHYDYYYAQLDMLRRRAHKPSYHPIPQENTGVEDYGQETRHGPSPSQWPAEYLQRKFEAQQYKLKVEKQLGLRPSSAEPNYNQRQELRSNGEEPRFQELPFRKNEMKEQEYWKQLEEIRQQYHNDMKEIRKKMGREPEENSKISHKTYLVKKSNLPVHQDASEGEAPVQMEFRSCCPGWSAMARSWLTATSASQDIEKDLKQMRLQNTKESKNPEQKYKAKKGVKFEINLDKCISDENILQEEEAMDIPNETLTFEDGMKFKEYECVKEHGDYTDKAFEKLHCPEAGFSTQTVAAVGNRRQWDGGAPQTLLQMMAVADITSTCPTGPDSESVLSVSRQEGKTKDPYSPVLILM
Assay: KINOMEscan competition binding
Conditions: compound 10.0 µM
Field format: number, assumed %, no unit text.

Note to self: kinase still bound, per cent of control recorded for O=C(O)c1ccc(Nc2ncc3c(n2)-c2ccc(Cl)cc2C(c2c(F)cccc2F)=NC3)cc1 was 46

Note to self: kinase still bound, per cent of control recorded for Cc1ccc2nc(NCCN)c3ncc(C)n3c2c1 was 100

Note to self: kinase still bound, per cent of control recorded for COc1cc(N2CCN(C)CC2)ccc1Nc1nc(N)c(C(=O)c2c(Cl)cccc2Cl)s1 was 96

Note to self: kinase still bound, per cent of control recorded for CCC(=O)N1CCN(c2ccc(-n3c(=O)ccc4cnc5ccc(-c6cnc7ccccc7c6)cc5c43)cc2C(F)(F)F)CC1 was 5.8

Note to self: kinase still bound, per cent of control recorded for COc1cc(C(=O)NC2CCN(C)CC2)ccc1Nc1ncc2c(n1)N(C1CCCC1)C(C)CC(=O)N2C (centres undefined) was 100

Note to self: kinase still bound, per cent of control recorded for CCCS(=O)(=O)Nc1ccc(F)c(C(=O)c2c[nH]c3ncc(-c4ccc(Cl)cc4)cc23)c1F was 100

Note to self: kinase still bound, per cent of control recorded for COc1cc(C(=O)NC2CCN(C)CC2)ccc1Nc1ncc2c(n1)N(C1CCCC1)CCC(=O)N2C(C)C was 100

Note to self: kinase still bound, per cent of control recorded for Cc1ccc(NC(=O)c2cccc(C(C)(C)C#N)c2)cc1Nc1ccc2ncn(C)c(=O)c2c1 was 33

Note to self: kinase still bound, per cent of control recorded for C=CC(=O)Nc1cccc(Oc2nc(Nc3ccc(N4CCN(C)CC4)cc3OC)ncc2Cl)c1 was 100

====

Kindly supply the reported kinase still bound, per cent of control values for the records listed here.
Target: CSNK2A1 (human)
Experiment: KINOMEscan competition binding
Details: compound 10.0 µM
Field format: number, assumed %, no unit text.

Note to self: kinase still bound, per cent of control recorded for CCN1CCN(Cc2ccc(Nc3ncc4c(n3)N(C)c3ccccc3C(=O)N4C)cc2C(F)(F)F)CC1 was 79

Note to self: kinase still bound, per cent of control recorded for CCCS(=O)(=O)Nc1ccc(F)c(C(=O)c2c[nH]c3ncc(-c4ccc(Cl)cc4)cc23)c1F was 100

Note to self: kinase still bound, per cent of control recorded for OCCCNc1cc(-c2ccnc(Nc3cccc(Cl)c3)n2)ccn1 was 100

Note to self: kinase still bound, per cent of control recorded for C=CC(=O)Nc1cccc(Oc2nc(Nc3ccc(N4CCN(C)CC4)cc3OC)ncc2Cl)c1 was 100

Note to self: kinase still bound, per cent of control recorded for Cc1cc([C@@H](C)Nc2ccccc2C(=O)O)c2nc(N3CCOCC3)cc(=O)n2c1 was 100

====

Target: PAK4 (human)
Test: KINOMEscan competition binding
Details: compound 10.0 µM
// returns 0 (no) unless kinase still bound, per cent of control is strictly below 90%, in which case 1 (yes)

Bench note: check whether C=CC(=O)Nc1cccc(Nc2nc(N[C@H]3CC[C@H](N(C)C)CC3)nc3c2ncn3C(C)C)c1 shows kinase still bound, per cent of control below 90%
1 (yes)

Bench note: check whether CN(C)C/C=C/C(=O)Nc1cccc(Nc2ncc3c(n2)N(C)c2ccccc2C(=O)N3C)c1 shows kinase still bound, per cent of control below 90%
1 (yes)

Bench note: check whether Cc1cc([C@@H](C)Nc2ccccc2C(=O)O)c2nc(N3CCOCC3)cc(=O)n2c1 shows kinase still bound, per cent of control below 90%
0 (no)

Bench note: check whether O=C1Nc2ccc(I)cc2/C1=C/c1cc(Br)c(O)c(Br)c1 shows kinase still bound, per cent of control below 90%
1 (yes)

Bench note: check whether COc1cc(C(=O)NC2CCN(C)CC2)ccc1Nc1ncc2c(n1)N(C1CCCC1)CCC(=O)N2C(C)C shows kinase still bound, per cent of control below 90%
0 (no)
